# protocol: physchem
# condition.label: water, pH 5, water
parameter.measured: solubility

Sample CC1CCc2cc(F)cc3c(=O)c(C(=O)O)cn1c23 (stereo not shown) — what was its solubility? ~0.1 mg/mL

----------
# protocol: physchem
# condition.label: water, pH 7, water
parameter.measured: solubility

Fill blank: measured solubility of the molecule CC1CCc2cc(F)cc3c(=O)c(C(=O)O)cn1c23 (stereo not shown) is ____. 300 to 400 µg/mL
